test system: PrP^Sc in dividing ScN2a-cl3 cells; type: cell-based, mouse; conditions: SPC assay, dividing cells
# 1 = Inhibition of Baseline PrP^5c (%) Dividing Cells ELISA below 80% (exclusive); -1 = Inhibition of Baseline PrP^5c (%) Dividing Cells ELISA at/above 80%

[
  {
    "molecule": "Cc1ccc2[nH]c3c(c2c1)CCCC3NCC12CC3CC(CC(C3)C1)C2 (centres unmarked) [IND-4176]",
    "classification": -1
  },
  {
    "molecule": "CC(=O)c1ccc(N2CCN(Cc3c(C)n(C)n(-c4ccccc4)c3=O)CC2)cc1 [IND-19672]",
    "classification": 1
  },
  {
    "molecule": "CCN1CCN(c2ccc(Nc3ccnc4cc5ccccc5cc34)cc2)CC1 [IND-2118]",
    "classification": 1
  },
  {
    "molecule": "O=C(Nc1ccc(Cl)cc1)Nc1cc(Cl)cc(Cl)c1 [IND-5942]",
    "classification": -1
  },
  {
    "molecule": "COc1cc(CN2CCN(c3cccc(C)c3C)CC2)cc(Br)c1O [IND-15461]",
    "classification": 1
  }
]

Sourced from patent US20140329863A1
